Measured Kd, listed per entry.
Target: T1, Plasmodium falciparum histidine-rich protein II (HRP-II) (Plasmodium falciparum, UniProt P05227 22-332)
T1 construct: Coating antigen of all ELISAs; also called HRP-II protein; MA-HRPII Ag protein
T1 sequence (looked up): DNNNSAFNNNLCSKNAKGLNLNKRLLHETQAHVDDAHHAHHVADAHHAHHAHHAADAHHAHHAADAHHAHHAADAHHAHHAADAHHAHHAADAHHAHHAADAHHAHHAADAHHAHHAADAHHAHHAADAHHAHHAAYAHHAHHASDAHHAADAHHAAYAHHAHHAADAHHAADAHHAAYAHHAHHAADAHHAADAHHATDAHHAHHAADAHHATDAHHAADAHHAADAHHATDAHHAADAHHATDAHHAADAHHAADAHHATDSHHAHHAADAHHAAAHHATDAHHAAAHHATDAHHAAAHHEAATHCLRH
Test: indirect ELISA, four antigen coating concentrations;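 note: optical density read across an antibody dilution series at each antigen coating level, curves plotted on log scale, KD derived as reciprocal of the averaged constant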
Respond numerically; units are nM and should not be typed.

In the examples that follow, each entry is paired with its recorded Kd.
{"binder": "Mutation 1-29 (antibody, mouse IgG2b, kappa, V domains shown, Mutation 1 as framework) VH: EVQLQQSGPEVVKPGASVKISCKASGYTITDYYMNWVKQSHGKGLEWIGDVNPIQGGTAYNQKFRDKATLTVDKSSNTAYMELRSLTSEDSALYYCTRGAEDYWGQGTTLTVSS VL: DVVLTQTPLSLSVTIGQPASISCKSSQSIIYSQGKIYLNWFQQRPGQSPKRLMYQVSKLEPGIPDRFSGSGSETDFTLKISRVEAEDLGVYYCLQGTYYPQTFGGGTKLEIKR", "value-type": "Kd", "unit-tag": "nM", "result-value": 0.0835}
{"binder": "Mutation 1-42 (antibody, mouse IgG2b, kappa, V domains shown, Mutation 1 as framework) VH: EVQLQQSGPEVVKPGASVKISCKASGYTITDYYMNWVKQSHGKGLEWIGDLNPINGGTAYQQKFRDKATLTVDKSSNTAYMELRSLTSEDSALYYCTRGAEDYWGQGTTLTVSS VL: DVVLTQTPLSLSVTIGQPASISCKSSQSILYSNGKIYLNWFQQRPGQSPKRLMYQISKLDPGIPDRFSGSGSETDFTLKISRVEAEDLGVYYCLQGTYSPQTFGGGTKLEIKR", "value-type": "Kd", "unit-tag": "nM", "result-value": 0.0643}

// next item, Kd requested
Q) Consider the binder shown here: Mutation 1-11 (antibody, mouse IgG2b, kappa, V domains shown, Mutation 1 as framework) VH: EVQLQQSGPEVVKPGASVKISCKASGYTITDYYMNWVKQSHGKGLEWIGDVNPINGGTAYNQKFRDKATLTVDKSSNTAYMELRSLTSEDSALYYCTKGAEDYWGQGTTLTVSS VL: DVVLTQTPLSLSVTIGQPASISCKSSQSIIYSNGKIYLNWFQQRPGQSPKRLMYQVSKLEPGIPDRFSGSGSETDFTLKISRVEAEDLGVYYCLQATYTPQTFGGGTKLEIKR What is its recorded Kd?
A) 0.0213
